biological target: N-formyl peptide receptor 2 (Homo sapiens) (UniProt P25090)
Sequence (P25090 whole entry, looked up): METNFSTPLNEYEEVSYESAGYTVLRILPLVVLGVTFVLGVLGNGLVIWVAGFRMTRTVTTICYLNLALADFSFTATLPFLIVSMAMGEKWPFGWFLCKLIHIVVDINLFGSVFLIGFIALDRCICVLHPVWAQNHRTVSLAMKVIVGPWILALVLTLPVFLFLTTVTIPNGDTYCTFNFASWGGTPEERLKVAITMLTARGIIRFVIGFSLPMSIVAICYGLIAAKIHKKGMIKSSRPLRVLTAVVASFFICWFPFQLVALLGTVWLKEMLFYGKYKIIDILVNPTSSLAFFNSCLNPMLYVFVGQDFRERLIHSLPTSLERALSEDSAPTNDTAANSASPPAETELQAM
Readout name: Ki

1) CCOC(=O)N1CCN(c2cc(NCCC(=O)O)c3c4c(onc24)-c2ccccc2C3=O)CC1: 30.1 µM
2) C=CCn1c(SCCCC)nc(O)cc1=O: > 40.3 µM
3) Cc1oc2cc(O)cc(O)c2c(=O)c1-c1ccc2c(c1)OCCCO2: > 40.3 µM
4) COc1cccc(C2C(C(=O)c3cc4ccccc4o3)=C(O)C(=O)N2c2cc(C)on2)c1OC (stereo not given): > 40.3 µM
5) COc1ccc(/C(O)=C2/C(=O)C(=O)N(c3nc(C)c(C)s3)C2c2ccco2)cc1 (stereo not given): > 40.3 µM

Where do the numbers come from? From PubChem BioAssay AID520.
